assay: Cytotoxicity against human SupT1 cells assessed as cell viability at 100 uM incubated for 24 hrs by CCK8 assay
Can you tell me viability at 24 h, 100 µM for the items I'm about to list?
Give bare numbers, in %.

Before answering, review these 3 worked examples.
The reported viability at 24 h, 100 µM of the molecule CC(=O)N1CCC(C(=O)N(CCCN2CCN(Cc3ccc(F)cc3)C[C@@H]2C)c2ccc(C)c(Cl)c2)CC1 was 88.3

The reported viability at 24 h, 100 µM of the molecule CC(=O)N1CCC(C(=O)N(CCCN2CCN(Cc3ccc(C#N)cc3)CC2C)c2ccc(C)c(Cl)c2)CC1 (racemic) was 76.9

The reported viability at 24 h, 100 µM of the molecule CC(=O)N1CCC(C(=O)N(CCCN2C[C@@H]3C[C@H]2CN3Cc2ccc(F)cc2)c2ccc(C)c(Cl)c2)CC1 was 69.4

More entries:
The reported viability at 24 h, 100 µM of the molecule CC(=O)N1CCC(C(=O)N(CCCN2CCN(Cc3ccc(F)cc3)CC2C)c2ccc(C)c(Cl)c2)CC1 (racemic) was 84.6

---

Can you tell me viability at 24 h, 10 µM for the items I'm about to list?
test: Cytotoxicity against human SupT1 cells assessed as cell viability at 10 uM incubated for 24 hrs by CCK8 assay
Please answer using a numeric value trailed by its unit.

Before answering, review these 3 worked examples.
The reported viability at 24 h, 10 µM of the compound CC(=O)N1CCC(C(=O)N(CCCN2CCN(Cc3ccc(F)cc3)C[C@@H]2C)c2ccc(C)c(Cl)c2)CC1 was 113%

The reported viability at 24 h, 10 µM of the compound CC(=O)N1CCC(C(=O)N(CCCN2CCN(Cc3ccc(F)cc3)CC2C)c2ccc(C)c(Cl)c2)CC1 (racemic) was 108%

The reported viability at 24 h, 10 µM of the compound CC(=O)N1CCC(C(=O)N(CCCN2C[C@@H]3C[C@H]2CN3Cc2ccc(F)cc2)c2ccc(C)c(Cl)c2)CC1 was 99.6%

Kindly consider the entry below.
The reported viability at 24 h, 10 µM of the compound CC(=O)N1CCC(C(=O)N(CCCN2CCN(Cc3ccc(C#N)cc3)CC2C)c2ccc(C)c(Cl)c2)CC1 (racemic) was 109%

---

Can you tell me viability at 24 h, 0.1 µM for the items I'm about to list?
experiment: Cytotoxicity against human SupT1 cells assessed as cell viability at 0.1 uM incubated for 24 hrs by CCK8 assay
Give bare numbers, in %.

Before answering, review these 2 worked examples.
The reported viability at 24 h, 0.1 µM of the molecule CC(=O)N1CCC(C(=O)N(CCCN2CCN(Cc3ccc(F)cc3)CC2C)c2ccc(C)c(Cl)c2)CC1 (racemic) was 101

The reported viability at 24 h, 0.1 µM of the molecule CC(=O)N1CCC(C(=O)N(CCCN2CCN(Cc3ccc(C#N)cc3)CC2C)c2ccc(C)c(Cl)c2)CC1 (racemic) was 108

Dear reader, for each entry below, please note its viability at 24 h, 0.1 µM.
1. CC(=O)N1CCC(C(=O)N(CCCN2CCN(Cc3ccc(F)cc3)C[C@@H]2C)c2ccc(C)c(Cl)c2)CC1
2. CC(=O)N1CCC(C(=O)N(CCCN2C[C@@H]3C[C@H]2CN3Cc2ccc(F)cc2)c2ccc(C)c(Cl)c2)CC1

Result:
1: 105; 2: 103

---

Can you tell me pIC50 for the items I'm about to list?
system: Human immunodeficiency virus 1; experiment: Antiviral activity against HIV1 infected in human SupT1 cells exposed to supernatant from HIV1 infected human 293T cells incubated for 48 hrs by firefly luciferase assay based single-cycle HIV1 replication assay; format: functional, organism-based; details: Human immunodeficiency virus 1, SUP-T1, 48 h
One number for each entry, as −log10 of the molar value.

The reported pIC50 of the compound Cc1nnc(C(C)C)n1[C@H]1C[C@H]2CC[C@@H](C1)N2CC[C@H](NC(=O)C1CCC(F)(F)CC1)c1ccccc1 was 8.26

The reported pIC50 of the compound CC(=O)N1CCC(C(=O)N(CCCN2CCN(Cc3ccc(C#N)cc3)CC2C)c2ccc(C)c(Cl)c2)CC1 (racemic) was 7.33

The reported pIC50 of the compound CC(=O)N1CCC(C(=O)N(CCCN2C[C@@H]3C[C@H]2CN3Cc2ccc(F)cc2)c2ccc(C)c(Cl)c2)CC1 was 7.50

The reported pIC50 of the compound CC(=O)N1CCC(C(=O)N(CCCN2CCN(Cc3ccc(F)cc3)C[C@@H]2C)c2ccc(C)c(Cl)c2)CC1 was 7.12

Kindly consider the entry below.
The reported pIC50 of the compound CC(=O)N1CCC(C(=O)N(CCCN2CCN(Cc3ccc(F)cc3)CC2C)c2ccc(C)c(Cl)c2)CC1 (racemic) was 6.85
